From: patent US11091496B2

Would you mind telling me the reported % Oxycodone, % IVA-IVD in hydrolysis mixture of each entry?
- Type: physicochemical
- SETTINGS: […]; total 1 mg/ml; 0.1 N HCl 37° C.; 0.583 h
For clarity, give the value followed by its unit.

INSERT INTO assay_data (compound, experimental_value) VALUES
  ('COc1ccc2c3c1O[C@H]1C4(CCC5(O)[C@@H](C2)N(C)CC[C@]315)O[C@H](C)C[C@@H](C)O4 (some centres unmarked)', '8.6%');

Hello, I would appreciate it if you could give % Oxycodone, % IVA-IVD in hydrolysis mixture for each entry below.
1. COc1ccc2c3c1O[C@H]1C(=O)CC[C@@]4(O)[C@@H](C2)N(C)CC[C@]314 [Oxycodone, oxycodone, reference compound]
2. COc1ccc2c3c1O[C@H]1[C@@]4(CCC5(O)[C@@H](C2)N(C)CC[C@]315)O[C@H](C)C[C@H](C)O4 (some centres unmarked)
3. COc1ccc2c3c1O[C@H]1C4(CCC5(O)[C@@H](C2)N(C)CC[C@]315)O[C@@H](C)C[C@H](C)O4 (some centres unmarked)
4. COc1ccc2c3c1O[C@H]1[C@]4(CCC5(O)[C@@H](C2)N(C)CC[C@]315)O[C@H](C)C[C@H](C)O4 (some centres unmarked)

["25.5%", "10.6%", "29.2%", "25.9%"]

* * *

Would you mind telling me the reported % Oxycodone, % IVA-IVD in hydrolysis mixture of each entry?
- Assay type: physicochemical
- SETTINGS: […]; total 1 mg/ml; 0.1 N HCl 37° C.; 0 h
Numbers only, in %.

Hello, I would appreciate it if you could give % Oxycodone, % IVA-IVD in hydrolysis mixture for each entry below.
1. COc1ccc2c3c1O[C@H]1[C@@]4(CCC5(O)[C@@H](C2)N(C)CC[C@]315)O[C@H](C)C[C@H](C)O4 (some centres unmarked)
2. COc1ccc2c3c1O[C@H]1C(=O)CC[C@@]4(O)[C@@H](C2)N(C)CC[C@]314 [Oxycodone, oxycodone, reference compound]

10.7
11.4

* * *

- SETTINGS: unreacted oxycodone + four isomers of Formula IV; 1 mg/ml; 5% acetic acid 100° C.; 0.5 h
READOUT_LABEL: % Oxycodone, % IVA-IVD in hydrolysis mixture
For clarity, give the value followed by its unit.

Hello, I would appreciate it if you could give % Oxycodone, % IVA-IVD in hydrolysis mixture for each entry below.
1. COc1ccc2c3c1O[C@H]1[C@@]4(CCC5(O)[C@@H](C2)N(C)CC[C@]315)O[C@H](C)C[C@H](C)O4 (some centres unmarked)
2. COc1ccc2c3c1O[C@H]1C4(CCC5(O)[C@@H](C2)N(C)CC[C@]315)O[C@@H](C)C[C@H](C)O4 (some centres unmarked)
3. COc1ccc2c3c1O[C@H]1C(=O)CC[C@@]4(O)[C@@H](C2)N(C)CC[C@]314 [Oxycodone, oxycodone, reference compound]
4. COc1ccc2c3c1O[C@H]1[C@]4(CCC5(O)[C@@H](C2)N(C)CC[C@]315)O[C@H](C)C[C@H](C)O4 (some centres unmarked)
5. COc1ccc2c3c1O[C@H]1C4(CCC5(O)[C@@H](C2)N(C)CC[C@]315)O[C@H](C)C[C@@H](C)O4 (some centres unmarked)

1. 8.7%
2. 12.8%
3. 55.8%
4. 21.1%
5. 1.5%
